Biological target: T1, human W3785-hProl.ECD.His (Human-TNFR2-His) protein (human, UniProt P20333 23-257)
T1 construct: extracellular domain; not shown: His tag
T1 sequence (looked up): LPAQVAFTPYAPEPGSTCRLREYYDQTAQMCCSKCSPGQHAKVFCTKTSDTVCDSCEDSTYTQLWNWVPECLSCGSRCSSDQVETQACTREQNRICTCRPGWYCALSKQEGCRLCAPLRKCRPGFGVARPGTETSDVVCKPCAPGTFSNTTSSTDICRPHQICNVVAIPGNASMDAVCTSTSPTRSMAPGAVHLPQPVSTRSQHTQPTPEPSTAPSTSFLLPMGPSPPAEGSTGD
Assay: BLI (Octet Red96e), antibody on AHC sensor, Human-TNFR2-His in solution, multiple concentrations
EXPERIMENTAL_ENDPOINT: kon
# answer = value followed by unit

INSERT INTO assay_data (binder, result) VALUES
  ('Antibody 21 (antibody, V domains shown, detected with anti-human IgG and captured on AHC sensors) VH: EVQLVESGGGLVKPGGSLRLSCAASGFTFSNAWMGWVRQAPEKGLEWVGQIKDKSNNYPTYYAESVKGRFTISRDDSKNTLYLQMNSLKTEDTAVYYCTTYGDFFDYWGQGTLVTVSS VL: DIQMTQSPSSLSASVGDRVTITCRASEDIYNALAWYQQKPGKVPKLLLYNANSLHTGVPSRFSGSGSGTDYTLTISSLQPEDFATYFCQQYYDHPLTFGQGTKLEIK', '821000 M⁻¹ s⁻¹');

Shifting focus to the binder that follows.
(Q) Name the recorded kon for Antibody 18 (antibody, V domains shown, captured on AHC sensors) VH: QVQLVQSGAEVKKPGASVKVSCKASGYTFTDYIIHWVRQAPGQGLEWMGWIDPDYGNTDYADKFKKRVTMTADTSISTAFMELSRLRSDDTAVYYCARDDGSPLVMDAWGQGTLVTVSS VL: DIQMTQSPSSLSASVGDRVTITCQGSQNIDNYLAWFQQKPGKAPKLLIYSTYSLQTGVPSRFSGSRSGTDFTLTISSLQPEDFATYFCFQYNQGYMFGGGTKLELK .
(A) 974000 M⁻¹ s⁻¹
